target: Recombinant human cathepsin A (Homo sapiens, UniProt P10619); construct: Recombinant human cathepsin A (residues 29-480, with a C-terminal 10-His tag); 10-His (C); experiment: Cathepsin A inhibitory activity; conditions: activated recombinant human cathepsin A 833 ng/ml, Bodipy FL-labeled bradykinin 2 μM, pH 5.5, 15 min room temperature
pIC50: −log10 of the molar value.
measured metric: pIC50

1: Cc1ccccc1[C@H](CC(=O)O)NC(=O)c1c[nH]c(-c2ccccc2)n1
2: O=C(O)C[C@H](NC(=O)c1nc(-c2ccccc2)oc1C(F)(F)F)c1ccccc1Cl
Q: Pick one, 1 or 2 : lowest reported pIC50. # reply format: chosen label
Result: 2

###

target: Recombinant human cathepsin A (Homo sapiens); construct: Recombinant human cathepsin A (residues 29-480, with a C-terminal 10-His tag); 10-His (C); purchased R&D Systems 1049-SE; experiment: Cathepsin A inhibitory activity; assay type: biochemical; details: activated recombinant human cathepsin A 833 ng/ml, Bodipy FL-labeled bradykinin 2 μM, pH 5.5, 15 min room temperature
measured metric: IC50 (µM)

Answered cases to consult:
1) CC(C)c1oc(-c2ccccc2)nc1C(=O)N[C@@H](CC(=O)O)c1ccccc1F ... 2.18
2) COc1cccc([C@H](CC(=O)O)NC(=O)c2nc(-c3ccccc3)oc2C(F)(F)F)c1OC ... 8.01
3) Cc1oc(-c2ccccc2)nc1C(=O)N[C@@H](CC(=O)O)c1ccccc1C(F)(F)F ... 8.47

P: Cc1oc(-c2ccccc2F)nc1C(=O)N[C@@H](CC(=O)O)c1ccccc1
Q: O=C(O)C[C@H](NC(=O)c1nc(-c2ccccc2)n(-c2ccccc2)n1)c1ccc(F)cc1
Q: Pick one, P or Q : lowest reported IC50. # reply format: chosen label
Result: Q
(Q: 0.517 µM, P: 2.32 µM)

###

molecular target: Recombinant human cathepsin A (Homo sapiens); construct: Recombinant human cathepsin A (residues 29-480, with a C-terminal 10-His tag); 10-His (C); assay: Cathepsin A inhibitory activity; conditions: activated recombinant human cathepsin A 833 ng/ml, Bodipy FL-labeled bradykinin 2 μM, pH 5.5, 15 min room temperature
measured metric: IC50

Answered cases to consult:
1. Cn1cc(NS(=O)(=O)CC2CCCCC2)c(C(=O)N[C@@H](CC(=O)O)c2ccccc2)n1 [Example 109] ... > 10 µM
2. Cc1ccccc1[C@H](CC(=O)O)NC(=O)CCc1nc(-c2ccccc2F)no1 [Example 53] ... > 10 µM

Next compound, please.
Q: Return reported IC50; argument: O=C(O)C[C@H](NC(=O)c1nc(-c2ccccc2)oc1C(F)(F)F)c1cccc(F)c1 [Example 79]
Result: > 10 µM

###

Molecular target: Recombinant human cathepsin A (Homo sapiens)
Construct: Recombinant human cathepsin A (residues 29-480, with a C-terminal 10-His tag); 10-His (C)
Sequence (P10619 29-326 limits assumed): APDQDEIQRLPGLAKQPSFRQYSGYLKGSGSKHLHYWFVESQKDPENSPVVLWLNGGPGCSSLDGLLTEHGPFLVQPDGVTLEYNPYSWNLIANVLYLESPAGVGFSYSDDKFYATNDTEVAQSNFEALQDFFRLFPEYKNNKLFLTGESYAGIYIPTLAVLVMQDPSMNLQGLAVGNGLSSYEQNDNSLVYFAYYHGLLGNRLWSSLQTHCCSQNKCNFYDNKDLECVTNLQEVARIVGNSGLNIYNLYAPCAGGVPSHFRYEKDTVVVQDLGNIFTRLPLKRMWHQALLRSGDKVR
Sequence (P10619 327-480 limits assumed): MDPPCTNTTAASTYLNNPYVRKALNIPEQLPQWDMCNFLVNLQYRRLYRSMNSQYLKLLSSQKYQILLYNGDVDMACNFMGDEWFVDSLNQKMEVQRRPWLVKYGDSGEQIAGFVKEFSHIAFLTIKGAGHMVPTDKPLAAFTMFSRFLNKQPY
Experiment: Cathepsin A inhibitory activity
Conditions: activated recombinant human cathepsin A 833 ng/ml, Bodipy FL-labeled bradykinin 2 μM, pH 5.5, 15 min room temperature
measured metric: IC50 (µM)

Answered cases to consult:
1. Cc1oc(-c2ccccc2F)nc1C(=O)N[C@@H](CC(=O)O)c1ccc(C(F)(F)F)cc1 ... 0.944
2. O=C(O)C[C@H](NC(=O)CCc1nc(-c2ccccc2F)no1)c1ccccc1F ... 0.337
3. Cc1ccccc1[C@H](CC(=O)O)NC(=O)c1nn(C(C)C)c2ccccc12 ... 0.351

a: CCCC1CCCCN1C(=O)c1cc(C(=O)N[C@@H](CC(=O)O)c2ccccc2)nn1CC (some centres unmarked)
b: Cc1oc(-c2ccccc2)nc1C(=O)N[C@@H](CC(=O)O)c1cccc(Cl)c1
Q: Pick one, a or b : lowest reported IC50. # reply format: chosen label
Result: b
